# Test system: L1210 leukemia ip in BDF1 mice, survival T/C
# assay_info: NCI In Vivo Anticancer Drug Screen. Data for tumor model L1210 Leukemia (intraperitoneal) in B6D2F1 (BDF1) mice
# experimental_conditions: endpoint: mean survival time; dose: 100.0 mg/kg/injection; schedule: Q01DX009 (ip); vehicle: saline with Tween-80; higher = longer survival
Inconclusive results and toxic doses are left out.
In this section we review reported T/C values for a set of molecules.

molecule	recorded_value
COc1ccc(/C=C/C(=O)c2ccc3c(c2)OCO3)cc1OC	101 % of control

Can you look up the measured T/C of `CCOC(=O)CNC(=O)NCc1ccc2c(c1)OCO2` for me?
98 % of control

Can you look up the measured T/C of `CC1=CSCC(=O)N1` for me?
97 % of control

Can you look up the measured T/C of `c1ccc(C2SCCSCCS2)cc1` for me?
86 % of control

Can you look up the measured T/C of `CCOC(=O)c1ccc(NC(=O)Nc2ccccc2Cl)cc1` for me?
93 % of control

Can you look up the measured T/C of O=C1OC2CCCCC2c2ccccc21 (centres undefined) for me?
98 % of control

Can you look up the measured T/C of `CC(C)=NNC(=O)c1ccccc1` for me?
113 % of control

Can you look up the measured T/C of `Cc1cccc(C2C(=O)c3ccccc3C2=O)n1` for me?
88 % of control

Can you look up the measured T/C of CCOC(C)C1C2CCCCC21 (centres undefined) for me?
101 % of control

Can you look up the measured T/C of `c1ccc(CNc2ncn[nH]2)cc1` for me?
103 % of control

Can you look up the measured T/C of `O=C(CNC(=O)Nc1nccs1)N/N=C/c1ccc(Cl)cc1` for me?
89 % of control

Can you look up the measured T/C of C1=C(c2ccccc2)CC(/C=C/c2ccccc2)(c2ccccc2)C1c1ccccc1 (centres undefined) for me?
87 % of control

Can you look up the measured T/C of `Fc1ccc(C(c2ccc(F)cc2)C(Cl)Cl)cc1` for me?
95 % of control

Can you look up the measured T/C of `CCOc1ccc(-c2nnc(Nc3ccc(S(=O)(=O)N4CCCCC4)cc3)s2)cc1` for me?
87 % of control

* * *

# Test system: L1210 leukemia ip in BDF1 mice, survival T/C
# assay_info: NCI In Vivo Anticancer Drug Screen. Data for tumor model L1210 Leukemia (intraperitoneal) in B6D2F1 (BDF1) mice
# experimental_conditions: endpoint: mean survival time; dose: 400.0 mg/kg/injection; schedule: Q01DX009 (ip); vehicle: Klucel (hydroxypropylcellulose) (HPC); higher = longer survival
Toxic doses and inconclusive results are not listed.
property_name: T/C

// solved cases for T/C follow
compound	T/C
O=[N+]([O-])c1ccc(C(Cl)C2(Br)C=c3ccccc3=C2)cc1 (centres undefined)	95 % of control
O=C(Nc1ccc(CCO)cc1)c1cccc(F)c1	91 % of control
COC(=O)/C=C/NC(=O)c1ccccc1C(=O)OC	109 % of control
COc1ccc([N+](=O)[O-])cc1NC(=O)COc1cc(Cl)c(Cl)cc1Cl	94 % of control

Can you look up the measured T/C of `COC(=O)C/C(=C\c1ccc(OC)c(OC)c1)C(=O)OC` for me?
103 % of control

Can you look up the measured T/C of `COc1ccc(/C=N/NC(=O)COCC(=O)N/N=C/c2ccc(OC)c(OC)c2)cc1OC` for me?
92 % of control

Can you look up the measured T/C of `c1ccc(NNC(c2ccccc2)(c2ccccc2)c2ccccc2)cc1` for me?
92 % of control

Can you look up the measured T/C of O=C(c1ccccc1)N1C(c2ccccc2)C1(c1ccccc1)C1(c2ccccc2)SCCCS1 (centres undefined) for me?
91 % of control

Can you look up the measured T/C of `Cc1ccc(NC(=O)Oc2ccccc2C(=O)OCc2ccccc2)cc1` for me?
101 % of control

Can you look up the measured T/C of `CC(=O)Nc1ccccc1Cl` for me?
108 % of control

Can you look up the measured T/C of `CC(C)(C)/C=N/Nc1ccc([N+](=O)[O-])cc1[N+](=O)[O-]` for me?
102 % of control

Can you look up the measured T/C of `O=c1ccc2nc3cc(Cl)ccc3sc-2c1` for me?
87 % of control

Can you look up the measured T/C of `CC(COC(=O)c1ccccc1)(COC(=O)c1ccccc1)COC(=O)c1ccccc1` for me?
107 % of control

Can you look up the measured T/C of CCOC(=O)C1=C(O)c2ccccc2C1c1ccccc1 (centres undefined) for me?
93 % of control

Can you look up the measured T/C of `CSc1ccc(NC(=O)C(Cl)Cl)cc1` for me?
101 % of control

Can you look up the measured T/C of O=C(Nc1ccccc1F)N(CC(O)c1ccccc1)C1CCCCC1 (centres undefined) for me?
94 % of control

Can you look up the measured T/C of Cc1ccc(C)c(NC(=O)N(CC(O)c2ccccc2)C2CCCCC2)c1 (centres undefined) for me?
95 % of control

Can you look up the measured T/C of c1ccc(C2OC2(c2ccccc2)c2ccccc2)cc1 (centres undefined) for me?
102 % of control

* * *

In this section we review reported T/C values for a set of compounds.
# Tested on: L1210 leukemia ip in BDF1 mice, survival T/C
# assay_info: NCI In Vivo Anticancer Drug Screen. Data for tumor model L1210 Leukemia (intraperitoneal) in B6D2F1 (BDF1) mice
# experimental_conditions: endpoint: mean survival time; dose: 100.0 mg/kg/injection; schedule: Q04DX003 (ip); vehicle: saline; higher = longer survival
Inconclusive results and toxic doses are left out.

// solved cases for T/C follow
compound	T/C
Nc1nc2c(c(-c3ccc(Cl)cc3)n1)CN(c1ccc(Br)cc1)C2=O	97 % of control
Cc1ccc2nc(-c3ccc(F)cc3)cc(C(=O)O)c2c1	92 % of control

Next compound, please.
Can you look up the measured T/C of NC(=O)CCC(C(=O)O)N1C(=O)C2C3CCC(C3)C2C1=O (stereo not drawn) for me?
98 % of control

* * *

# System: L1210 leukemia ip in BDF1 mice, survival T/C
# assay_info: NCI In Vivo Anticancer Drug Screen. Data for tumor model L1210 Leukemia (intraperitoneal) in B6D2F1 (BDF1) mice
# experimental_conditions: endpoint: mean survival time; dose: 100.0 mg/kg/injection; schedule: Q04DX002 (ip); vehicle: Klucel (hydroxypropylcellulose) (HPC); higher = longer survival
Inconclusive results and toxic doses are left out.
In this section we review reported T/C values for a set of compounds.

// solved cases for T/C follow
compound	target	recorded_value
CC1CCN(P(c2ccccc2)N2CCC(C)CC2)CC1	L1210 leukemia ip in BDF1 mice, survival T/C	97 % of control
Cc1cccc(C)c1NC(=O)N1CCN(C)CC1	L1210 leukemia ip in BDF1 mice, survival T/C	88 % of control
O=C(O)c1cc(S(=O)(=O)O)cc([N+](=O)[O-])c1O	L1210 leukemia ip in BDF1 mice, survival T/C	96 % of control
C(=N/Sc1ccccc1)/c1ccccc1	L1210 leukemia ip in BDF1 mice, survival T/C	98 % of control

Can you look up the measured T/C of `Cc1cc(C)cc(OCC#CCN(C)c2ccccc2)c1` for me?
99 % of control

Can you look up the measured T/C of `CN/C([S-])=N/N=C/C(=N/N=C(\[S-])NC)c1ccc(-c2ccccc2)cc1.[Cu+2]` for me?
106 % of control

Can you look up the measured T/C of `O=C(/C=C\c1ccccc1)OCc1ccccc1CN1C=CCC1` for me?
86 % of control

Can you look up the measured T/C of `CN(C)C(=O)C(=O)c1c[nH]c2ccccc12` for me?
118 % of control

Can you look up the measured T/C of O=C1CCCC(c2ccccc2)O1 (stereo not drawn) for me?
108 % of control

* * *

# System: L1210 leukemia ip in BDF1 mice, survival T/C
# assay_info: NCI In Vivo Anticancer Drug Screen. Data for tumor model L1210 Leukemia (intraperitoneal) in B6D2F1 (BDF1) mice
# experimental_conditions: endpoint: mean survival time; dose: 200.0 mg/kg/injection; schedule: Q01DX009 (ip); vehicle: saline with Tween-80; higher = longer survival
# Description: The antitumor activity of compounds was measured in mice bearing transplantable tumors. Survival or tumor size were measured and the results are expressed as the measurement made in the treated group (T) divided by the measurement made in the vehicle treated control group (C). The tumor model used in this assay is L1210 Leukemia (intraperitoneal) in B6D2F1 (BDF1) mice
Inconclusive results and toxic doses are left out.
property_name: T/C

// solved cases for T/C follow
compound	target	T/C
CC(=O)c1cc2cc(Cl)cc(Cl)c2oc1=O	L1210 leukemia ip in BDF1 mice, survival T/C	91 % of control
Cc1ccc(CNc2ccc([N+](=O)[O-])cc2)cc1	L1210 leukemia ip in BDF1 mice, survival T/C	97 % of control
CC/C=C(\CC(=O)OCC)C(=O)OCC	L1210 leukemia ip in BDF1 mice, survival T/C	96 % of control
CC1=C(OCC(C)C)CCCC1=O	L1210 leukemia ip in BDF1 mice, survival T/C	96 % of control
CS(=O)(=O)OCCC(COS(C)(=O)=O)S(=O)(=O)CCCOc1ccccc1-c1ccccc1 (configuration not stated)	L1210 leukemia ip in BDF1 mice, survival T/C	94 % of control
Fc1ccc(NC(=S)SCc2ccc(Cl)c(Cl)c2)cc1F	L1210 leukemia ip in BDF1 mice, survival T/C	112 % of control

Can you look up the measured T/C of CCOC(C)C1C2CCCCC21 (configuration not stated) for me?
92 % of control

The origin of these recorded values is PubChem BioAssay AID248.
